- Target Or Test System: SMYD3 (Homo sapiens (Human), UniProt Q9H7B4)
- Test Method Notes: SMYD3 biochemical assay (SPA, 3H-SAM methylation of MEKK2 protein substrate)
- Experimental Context: Table 1A; IC50 values are an average of n = 1 to n = 50; read-out: SMYD3 Biochem IC50
Property Measured: IC50 (nM)
Only the number, expressed in nM, is required.

Input: # returns recorded IC50 (system: SMYD3 (Homo sapiens (Human), UniProt Q9H7B4)) for O=C1Cc2cc(S(=O)(=O)N3[C@@H]4CC[C@H]3C[C@H](NC(=O)c3cc(C5CC5)on3)C4)c(Cl)cc2N1
Output: 9230

Input: # returns recorded IC50 (system: SMYD3 (Homo sapiens (Human), UniProt Q9H7B4)) for C[C@@H]1C[C@@H](NC(=O)c2cc(C3CC3)on2)CCN1S(=O)(=O)c1ccnc(N(C)CCN)c1
Output: 487

Input: # returns recorded IC50 (system: SMYD3 (Homo sapiens (Human), UniProt Q9H7B4)) for O=C(N[C@H]1CCN(S(=O)(=O)CCCN2CCOCC2)[C@H](Cc2ccccc2)C1)c1cc(C2CC2)on1
Output: 9960

Input: # returns recorded IC50 (system: SMYD3 (Homo sapiens (Human), UniProt Q9H7B4)) for C[C@H]1C[C@@H](NC(=O)c2cc(C3CC3)on2)CCN1S(=O)(=O)c1cccc(N(C)CCN2CCOCC2)n1
Output: 4500

Input: # returns recorded IC50 (system: SMYD3 (Homo sapiens (Human), UniProt Q9H7B4)) for CC(C)[C@@H]1C[C@H](NC(=O)c2cc(C3CC3)on2)CCN1S(=O)(=O)CCCN
Output: 766

Input: # returns recorded IC50 (system: SMYD3 (Homo sapiens (Human), UniProt Q9H7B4)) for O=C1Cc2cc(S(=O)(=O)N3[C@@H]4CC[C@H]3C[C@H](NC(=O)c3cc(C5CC5)on3)C4)ccc2N1
Output: 842

Input: # returns recorded IC50 (system: SMYD3 (Homo sapiens (Human), UniProt Q9H7B4)) for C[C@H]1C[C@@H](NC(=O)c2cc(C3CC3)on2)CCN1S(=O)(=O)c1cccc(NCCCN)n1
Output: 50.1

Input: # returns recorded IC50 (system: SMYD3 (Homo sapiens (Human), UniProt Q9H7B4)) for C[C@H]1C[C@@H](NC(=O)c2cc(C3CC3)on2)CCN1S(=O)(=O)c1ccc(NCCN)nc1
Output: 5.92

Input: # returns recorded IC50 (system: SMYD3 (Homo sapiens (Human), UniProt Q9H7B4)) for C[C@H]1C[C@@H](NC(=O)c2cc(C3CC3)on2)CCN1S(=O)(=O)c1cccnc1N
Output: 1080

Input: # returns recorded IC50 (system: SMYD3 (Homo sapiens (Human), UniProt Q9H7B4)) for C[C@H]1C[C@@H](NC(=O)c2cc(C3CC3)on2)CCN1S(=O)(=O)c1ccc(N)nc1
Output: 407

Ref: patent US10577363B2
